B1: HDV Ribozyme (parent)
chain: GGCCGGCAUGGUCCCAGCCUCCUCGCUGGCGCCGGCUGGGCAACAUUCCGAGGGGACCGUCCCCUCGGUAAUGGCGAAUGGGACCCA

- Variants of: B1
- EXPERIMENT_DESCRIPTION: self-cleavage, relative activity (ratio to wild type); higher = more cleavage; co-transcriptional
Class field: derived from self-cleavage; ranges lower bin = under 0.1, middle bin = from 0.1 up to 0.3, upper bin = 0.3 and over

Answered examples (5):
# MUTANT, CAT
measured = [
    ("G1U U65G", "middle bin"),
    ("A8G G25A", "lower bin"),
    ("G11U G55C", "upper bin"),
    ("U12G G81C", "upper bin"),
    ("C3G A43C", "middle bin"),
]

query: Category of G40C U72C :
result: middle bin

query: Category of C32U A45C :
result: middle bin

query: Category of G6A C14G :
result: middle bin

query: Category of C3U C19U :
result: middle bin

query: Category of C22G G76U :
result: lower bin

src = the RNAGym collection of RNA variant scans (doi:10.7554/elife.80360)
